# System: Jurkat
# test description: Cytotoxicity against human Jurkat cells assessed as live cells in neubauer chamber after 24 hrs by trypan blue assay
# Format: cell-based
quantity: IC50
Could you give the number and then its unit, please?

Prompt: Return IC50 for the following compound: N#C[Se]Cc1ccc(Br)cc1
Completion: 12.7 µM

Prompt: Return IC50 for the following compound: N#C[Se]Cc1ccc(C(F)(F)F)cc1
Completion: 7.31 µM

Prompt: Return IC50 for the following compound: CCCCCCCCCCCCCCCCCCOCC(COP(=O)([O-])OCC[N+](C)(C)C)OC (stereo not drawn) [EDELFOSINE]
Completion: 12.2 µM

* * *

# test description: Selectivity ratio, ratio of IC50 for human THP1 cells to IC50 for Leishmania infantum MCAN/ES/89/IPZ229/1/89 amastigotes
# Format: ADME, cell-based
# conditions: THP-1 cells, read-out: Ratio IC50
quantity: selectivity ratio
Provide a numeric answer; units are not to be included.

Prompt: Return selectivity ratio for the following molecule: Nc1ccc([Se][Se]c2ccc(N)cc2)cc1
Completion: 24

Prompt: Return selectivity ratio for the following molecule: Cc1ccc(C[Se]C#N)cc1
Completion: 7

Prompt: Return selectivity ratio for the following molecule: CN(C)c1ccc([Se][Se]c2ccc(N(C)C)cc2)cc1
Completion: 29

Prompt: Return selectivity ratio for the following molecule: N#C[Se]Cc1ccccc1[N+](=O)[O-]
Completion: 21

Prompt: Return selectivity ratio for the following molecule: N#C[Se]Cc1cccc(C#N)c1
Completion: 14

Prompt: Return selectivity ratio for the following molecule: CN(C)c1ccc([Se]C#N)cc1
Completion: 16

Prompt: Return selectivity ratio for the following molecule: N#C[Se]CCc1ccc([N+](=O)[O-])cc1
Completion: 5

Prompt: Return selectivity ratio for the following molecule: N#C[Se]Cc1cccc([N+](=O)[O-])c1
Completion: 16

Prompt: Return selectivity ratio for the following molecule: N#C[Se]Cc1ccc(Br)cc1
Completion: 4

Prompt: Return selectivity ratio for the following molecule: N#C[Se]Cc1ccccc1 [BENZYLSELENOCYANATE]
Completion: 10

Prompt: Return selectivity ratio for the following molecule: O=[N+]([O-])c1ccccc1C[Se][Se]Cc1ccccc1[N+](=O)[O-]
Completion: 8

Prompt: Return selectivity ratio for the following molecule: N#C[Se]Cc1ccc(C#N)cc1
Completion: 15

Prompt: Return selectivity ratio for the following molecule: N#C[Se]Cc1ccccc1C#N
Completion: 5

Prompt: Return selectivity ratio for the following molecule: c1ccc(C[Se][Se]Cc2ccccc2)cc1 [BISBENZYLDISELENIDE]
Completion: 51

Prompt: Return selectivity ratio for the following molecule: CCCCCCCCCCCCCCCCCCOCC(COP(=O)([O-])OCC[N+](C)(C)C)OC (stereo unspecified)
Completion: 6

Origin of the recorded values: ChEMBL document CHEMBL1806371
